Where do these numbers come from? They come from patent US12691070B2.

In vivo Expression (Whole Body) values, listed per item
# System: BALB/C mice
# ASSAY_METHOD_TEXT: In vivo expression, whole-body luminescence (IVIS)
# MEASUREMENT_CONTEXT: cirRNA (SEQ ID NO: 1) LNPs, BALB/C mice
Answer with a number only.

CCCCC/C=C\C/C=C\CCCCCCCCN(CCCCCC(=O)OCC(CCCCCCCC)CCCCCCCCCC)CCOC(=O)NCCN1CCOCC1 (stereo not shown) ... 4.70E+07

Let me know recorded In vivo Expression (Whole Body) for CCCCCCCCCCCOC(=O)CCCCCN(CCCCCCCCOC(=O)C(CCCCCC)CCCCCCCC)CCOC(=O)NCc1ncc[nH]1 (stereo not shown) , thanks. 1.79E+07

Let me know recorded In vivo Expression (Whole Body) for CCCCCCCCCCC(CCCCCCCC)COC(=O)CCCCCN(CCCCCC(=O)OCC(CCCCCCCC)CCCCCCCCCC)CCOC(=O)NCCN(C)C (stereo not shown) , thanks. 3.35E+08

Let me know recorded In vivo Expression (Whole Body) for CCCCC/C=C\C/C=C\CCCCCCCCN(CCCCCCCC(=O)OC(CCCCCCCC)CCCCCCCC)CCCOC(=O)NCCN(C)C , thanks. 9.90E+07

Let me know recorded In vivo Expression (Whole Body) for CCCCC/C=C\C/C=C\CCCCCCCCN(CCCCCCCC(=O)OC(CCCCCCCC)CCCCCCCC)CCOC(=O)NCCN(C)C , thanks. 1.69E+09

Let me know recorded In vivo Expression (Whole Body) for CCCCCCCCCC(=O)OCCCCCCCN(CCCCCCCCOC(=O)C(CCCCCC)CCCCCCCC)CCOC(=O)NCCN(C)C (stereo not shown) , thanks. 3.04E+07

Let me know recorded In vivo Expression (Whole Body) for CCCCC/C=C\C/C=C\CCCCCCCCN(CCCCCCCC/C=C\C/C=C\CCCCC)CCOC(=O)NCc1ccncc1 , thanks. 1.16E+05
